# Target: Pseudomonas aeruginosa LpxC enzyme (Pseudomonas aeruginosa (strain ATCC 15692 / DSM 22644 / CIP 104116 / JCM 14847 / LMG 12228 / 1C / PRS 101 / PAO1))
# Assay details: biochemical
# Type: biochemical
# Recorded conditions: inhibitory activity on Pseudomonas aeruginosa LpxC enzyme, class symbols A/B/C; read-out: Enzyme inhibitory activity
Measure name: IC50

Compound: CNC(=O)C(C(=O)NO)N(C)C(=O)c1ccc(C#CC#Cc2ccc(CNC3CC3)cc2)cc1 (stereo not shown)
Value reported: < 10 nM
--
Compound: CNC(=O)C(C(=O)NO)N(C)C(=O)c1ccc(C#Cc2ccc(CNC(C)(C)C)cc2)cc1 (stereo not shown)
Value reported: 10 to 100 nM
--
Compound: CNC(=O)C(C(=O)NO)N(C)C(=O)c1ccc(-c2ccc(OCc3ccc(-c4nnn[nH]4)cc3)cc2)cc1 (stereo not shown)
Value reported: 10 to 100 nM

## Input What IC50 value was documented for this compound, CNC(=O)C(C(=O)NO)N(C)C(=O)c1ccc(-c2cc(C)ccn2)cc1 (stereo not shown) ?
## Output > 100 nM

## Input Then what about the compound CNC(=O)C(C(=O)NO)N(C)C(=O)c1ccc(-c2ccc(O)cc2)cc1 (stereo not shown) ?
## Output 10 to 100 nM

## Input Please answer likewise for CCNc1ccc(-c2ccc(C(=O)N(C)C(C(=O)NC)C(=O)NO)cc2)cc1 (stereo not shown)
## Output < 10 nM

## Input Another compound to check: CNC(=O)C(C(=O)NO)N(C)C(=O)c1ccc(-c2ccnc(C)c2)cc1 (stereo not shown)
## Output 10 to 100 nM

## Input Note, next up: CNC(=O)C(C(=O)NO)N(C)C(=O)c1ccc(-c2cccc(O)c2)cc1 (stereo not shown)
## Output 10 to 100 nM

## Input // same read-out, input: CNC(=O)C(C(=O)NO)N(C)C(=O)c1ccc(C#Cc2ccc(C(C)N3CCOCC3)cc2)cc1 (stereo not shown)
## Output < 10 nM

## Input For CNC(=O)C(C(=O)NO)N(C)C(=O)c1ccc(C#Cc2ccc(N3CCN(C)CC3)cc2)cc1 (stereo not shown) then?
## Output 10 to 100 nM

## Input Likewise for CNC(=O)C(C(=O)NO)N(C)C(=O)c1ccc(-c2cccc(C)n2)cc1 (stereo not shown) ?
## Output > 100 nM
